// provenance: patent US10975056B2

Below is a list of entries, each paired with its recorded pIC50 value.
molecular target: DNMT3B (Homo sapiens (Human)); test: DNMT3B breaklight assay; assay type: biochemical; conditions: read-out: DNMT3B Breaklight IC50
pIC50: −log10 of the molar value.

Sure, the documented pIC50 for CCc1c(C#N)c(SC(C(N)=O)c2ccccc2)nc(N2CCC(=O)CC2)c1C#N (centres unmarked) is < 3.30

Record summary for CCc1c(C#N)c(SC(C(N)=O)c2ccccc2)nc(N(C)CCOC)c1C#N (centres unmarked) : reported pIC50 = < 3.30

* * *

tested on: erythroid progenitor cells (EPCs); experiment: Fetal hemoglobin (HbF) ELISA in day 7 erythroid progenitor cells; assay type: cell-based, human; conditions: Homo sapiens, Erythroid progenitor cell, HbF ELISA, day 7 EPCs, 5 days; read-out: EPC ELISA (pEC50 category) (converted);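 further: for fetal hemoglobin induction normalized to vehicle-treated cells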
Where a name gives a salt, the structure may show the parent alone.
PROPERTY_LABEL: EC50

Please review the entries below; each comes with its answer.
{"COMPOUND": "COc1c(C#N)c(SCc2ccc(N(C)S(C)(=O)=O)cc2)nc(N2CCC(N)CC2)c1C#N [Example 683, hydrochloride]", "EXPERIMENTAL_SYSTEM": "erythroid progenitor cells (EPCs)", "EC50": "< 316 nM"}
{"COMPOUND": "CCc1c(C#N)c(SC(C(N)=O)c2ccccc2)nc(N2CCN(Cc3ncco3)CC2)c1C#N (stereo not shown) [Example 176]", "EXPERIMENTAL_SYSTEM": "erythroid progenitor cells (EPCs)", "EC50": "316 to 1000 nM"}
{"COMPOUND": "CCc1c(C#N)c(SCc2ccc(C#N)c(C)c2)nc(N2CCCN(C)CC2)c1C#N [Example 295]", "EXPERIMENTAL_SYSTEM": "erythroid progenitor cells (EPCs)", "EC50": "> 31600 nM"}

Note: attention shifts to another entry.
The value of EC50 measured for the compound CCc1c(C#N)c(SC(C(N)=O)c2ccccc2)nc(N(C)C2CC(N)C2)c1C#N (stereo not shown) [Example 498] turned out to be 316 to 1000 nM
